- TARGET OF ASSAY: Casein kinase I isoform delta (Homo sapiens)
- ASSAY EXPLANATION: CSNK1D kinase inhibitors, dose response, biochemical, Z'-LYTE, FRET, direct format (AID 1671244)
- ASSAY CONDITIONS: Z'-LYTE FRET kinase activity, recombinant CK1 delta
pIC50: −log10 of the molar value.
READOUT LABEL: pIC50

{"QUERY SMILES": "Brc1c(Br)c(Br)c2n[nH]nc2c1Br", "TARGET OF ASSAY": "Casein kinase I isoform delta (Homo sapiens)", "READOUT LABEL": "pIC50", "REPORTED RESULT": 5.43}
